# test system: T1, mouse CD20 (mouse, UniProt P19437 1-291)
# T1 construct: whole, on cells; Endogenous mouse CD20 on primary B cells; also called cell-surface CD20
# T1 sequence (looked up): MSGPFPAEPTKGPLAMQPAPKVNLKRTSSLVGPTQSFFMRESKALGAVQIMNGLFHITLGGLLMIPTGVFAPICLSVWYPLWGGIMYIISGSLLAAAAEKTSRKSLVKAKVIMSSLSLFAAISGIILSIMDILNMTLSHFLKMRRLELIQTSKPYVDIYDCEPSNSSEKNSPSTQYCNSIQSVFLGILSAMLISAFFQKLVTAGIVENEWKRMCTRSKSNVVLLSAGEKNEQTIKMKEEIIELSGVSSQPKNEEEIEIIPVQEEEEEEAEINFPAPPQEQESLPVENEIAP
# assay text: flow cytometry, mouse spleen CD19+ B cells, mAb at 0.5 µg/mL, isotype-specific secondary antibody
readout label: B cell reactivity (mean linear fluorescence intensity)

Given the binder MB20-2 monoclonal antibody (antibody, V domains shown, Mouse anti-mouse CD20 hybridoma antibody, IgG1; also called MB20-02) VH: EVQLQESGPELVKPGASVKISCKASGYMFTDYYIKWVKQSHGKSLEWIGDINPNNGDTIYNQKFKGKATLTVDKSSNTAYMDLRSLTSEDSAVYYCARERFAYWGQGTLVTVSA VL: EIVLTQSPTTMAASPGEKITITCSVSSSIRSNYLHWYQQKPGFSPKLLIYRTSNLASGVPARFSGSGSGTSYSLTVATMEAEDVATYYCQQGSSIPLTFGAGTKLELKR , what is its reported B cell reactivity (mean linear fluorescence intensity)?
209 mean linear fluorescence intensity

Check MB20-13 monoclonal antibody (antibody, V domains shown, Mouse anti-mouse CD20 hybridoma antibody, IgG3) VH: EVQLQESGGGLVQPGGSLKLSCAASGFTFSDYGMAWVRQAPRKGPEWVAFISNLAYSIYYADTVTGRFTISRENAKNTLYLEMSSLRSEDTAMYFCTRTGYYALDYWGQGTSVTVSS VL: EIVLAQSPTTTAASPGEKITITCSASSSITSNYLHWYQQKPGFSPKLLIYRTSNLASGVPARFSGSGSGTSYSLTIGTMEAEDVATYYCQQGSSKTLTFGAGTKLELKR too.
603 mean linear fluorescence intensity

Next: MB20-10 monoclonal antibody (antibody, V domains shown, Mouse anti-mouse CD20 hybridoma antibody, IgG2b) VH: EVQLQESGPDLVKPGASVKISCKASGYTFTDYYMKWVKQSHGKSLDWIGDINPNNGDIIYNQKFEGKATLTVDKSSSTAYMELRSLTSEDSAVYYCARERFAYWGQGTLVTVSA VL: EIVLTQSPTTMAASPGEKITITCSVSSNIRSNYLHWYQQKPGFSPKLLIYRTSNLASGVPARFSGSGSGTSYSLTIGTMKAEDVATYYCQQGSSIPLTFGAGTKLELKR
317 mean linear fluorescence intensity
